Every entry's value here was drawn from patent US20250340623A1.

Target desc: alpha-synuclein fibrils, P37840
Assay: SPR, captured mAb
Settings: remark: other sources report otherwise
Quantity name: koff
Number first, unit second.

Input line: State its koff: ACI-7079-2605B3-Ab2 (antibody, V domains shown) VH: EVQLVESGGGLVQPKGSLKLSCAASGFIFKTYAMHWVRQAPGKGLEWVARIRSKGGNYATYFADSVKDRFTISRDDSQNMLYLQVNNLKIEDTAMYFCVRGGNYSWFAYWGQGTLVTVSA VL: QIVLTQSPAIMSASPGEKVTMTCSASSSVTYMHWYQQKSGTSPKRWIYDTSQLASGVPARFSGSGSGTSHSLTISSMETEDAATYYCQQWTRNPPTFGGGTKLAIK
Output line: 0.000294 s⁻¹

Input line: State its koff: ACI-7079-2501D10-Ab1 (antibody, V domains shown) VH: EVQLVESGGGLVQPKGSLKVSCAASGFTFKTYAMHWVRQAPGKGLEWVARIRSENSNFAKYYADSVKDRFTISRDDSQSMLYLQMNNLKTEDTAMYYCVRGYNGSSLDYWGQGTTLTVSS VL: QIVLTQSPAIMSAFPGERVTMTCSASSSVNYMHWYQQKSGTSPKRWIYDTSKLASGVPARFSGGGSGTSYSLTISNMEAEDAATYYCQQWRSNPPTFGGGTKLEIK
Output line: 0.000427 s⁻¹

Input line: Output measured koff for this item: ACI-7067-1106A8-Ab2 (antibody, V domains shown) VH: EVQLVESGGGLVQPKGSLKLSCAASGFTFNTYAMHWVRQAPGKGLEWVARIRSKGSNYATNYADSVKDRFTISRDDSQSMLYLQMNNLKTEDTAMYYCVRGHGSSYFSYWGQGTLVTVSA VL: QIVLTQSPAIMSASPGEKVTMTCSASSSVSYMHWYQQKSGTSPKRWIYDTSNLASGVPARFSGSGSGTSYSLTISSMEAEDAATYYCQQWNSHPPTFGAGTKLELK
Output line: 0.00721 s⁻¹

Input line: Dear colleague, please send me the reported koff for ACI-8033-1A12-Ab1 (antibody, V domains shown) VH: QVHLKQSGADLVRPGASVKLSCKASGYSFTDFYINWVKQTPGQGLEWIARIYPGNNNTFYNEKFKGKATLSAEKSSTTAYMQLSSLTSEDSAVYFCVVGYYGAWGQGTTLTVSS VL: DVVMTQTPLSLPVSLGDQASISCRSSQSLVHSNGNTHLHWYLQKPGQSPKLLIYKVSNRFSGVPDRFSGSGSGTDFTLKISRVEAEDLGFYFCSQSTHVPWTFGGGTKLEIK when you can.
Output line: 6.53e-05 s⁻¹

Others:
Input line: Output koff of ACI-7079-2506E2-Ab2 (antibody, V domains shown) VH: QVQLQQSGPELVRPGASVKISCKASGYAFSNSWMNWVKQRPGKGLEWIGRIFPGDGDTYYDGKFKGKVKLTTDKFSNTAYMQLRSLTSEDSAVYFCARWGGTNDEWFAHWGQGTLVTVSV VL: DIVLTQSPASLTVSLGQRATISCRASQSVSTSRNSYMHWYQQKPRQPPKLLIKYASNLESGVPARFSGSGSGADFTLNIHPVEEEDTATYYCQHSWDIPLTFGTGTKLELS
Output line: 0.000476 s⁻¹

Input line: Specify measured koff for ACI-7067-1113D10-Ab1 (antibody, V domains shown) VH: EVQLVESGGGLVQPKGSLKLSCAASGFTFNTYALHWVRQAPGKGLEWVARIRSKSSNYATYYADSVKDRFTISRDDSQSMLYLQMNNLKTEDTGMYYCVRGGVSPFDYWGQGTTLTVSS VL: QIVLTQSPAIMSASPGEKVTMTCSASSSVSYMHWYQQKSGTSPKRWIYDTSKLASGVPARFSGSGSGTSYSLTISSMEAEDSATYYCQQWSNNPPTFGGGTKLEIK .
Output line: 4.16e-07 s⁻¹

Input line: Identify measured koff corresponding to ACI-7088-4303A1-Ab1 (antibody, V domains shown) VH: EVQLQQSGAELVRPGASVKLSCTASGFNIKDDYMHWVKQRPEQGLEWIGWIDPENGDSEYASKFQGKATMTADTSSNTAYLQLSSLTSEDTAVYYCKTWGTAQALFPYWGQGTLVTVSA VL: DIVMTQSQKFMSTSVGDRVSITCKASQNVGTSVGWYQQKAGQSPKLLIHSASNRYTGVPDRFTGSGSGTDFTLTINNMQSEDLADYFCQQYRSYPLTFGAGTKLELK
Output line: 0.000244 s⁻¹

Input line: Return reported koff. Input binder: ACI-7067-1108B11-Ab2 (antibody, V domains shown) VH: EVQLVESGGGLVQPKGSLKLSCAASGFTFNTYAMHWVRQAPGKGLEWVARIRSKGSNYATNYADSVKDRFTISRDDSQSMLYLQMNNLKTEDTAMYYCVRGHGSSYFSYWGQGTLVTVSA VL: QIVLTQSPAIMSASPGERITMTCSANSSVTYMHWYQQKSGTSPKRWIYDTSNLASGVPARFSGSGSGTSYSLTISSMEAEDAATYYCQQWKSHPPTFGAGTKLELK
Output line: 0.00205 s⁻¹

Input line: Return the recorded koff value; entry: ACI-7079-2603F3-Ab1 (antibody, V domains shown) VH: EVQLVESGGGLVQPKGSLKLSCAASGFTFNTYAMHWVRQAPGKGLEWVARIRSKGSNYATYYADSVKDRFTISRDDSQSMLYLQMNNLKTEDTAMYYCVRGGGDSWFAYWGQGTLVTVSA VL: QIVLTQSPAIMSASPGERVTMTCTASSSVSYMHWYQQKSGTSPKRWIYDTSKLASGVPARFSGSGSGASYTLTISSMEAEDAATYYCQQWNSNPPTFGGGTQLAIK
Output line: 1.6e-08 s⁻¹

Input line: Determine its reported koff: ACI-7079-2506F3-Ab1 (antibody, V domains shown) VH: QVQLQQPGAELVKPGASVKLSCKASGYTFTTYWMQWVKQRPGQGLEWIGEIDPSDSYINYNQKFKGKATLTVDTSSSTAFMQLSSLTSEDSAVYYCARGMMDYWGQGTSVTVSS VL: DVLMTQTPLSLPVSLGDQASISCRSSQSIVHSNGNTYLEWYLQKPGQSPKLLIYKVSNRFSGVPDRFSGSGSGTDFTLKISRVEAEDLGVYYCFKGSHVPYTFGGGTKLEIK
Output line: 0.000161 s⁻¹
